Consider the following binders; for each one, report its β-galactosidase activity (yeast two-hybrid), No Lig.
Assay System: T1, Gal4 transcriptional activation domain (AD) fused in frame with AR (yeast, UniProt P10275 1-920, limits assumed); also: unit not given here
T1 sequence (looked up): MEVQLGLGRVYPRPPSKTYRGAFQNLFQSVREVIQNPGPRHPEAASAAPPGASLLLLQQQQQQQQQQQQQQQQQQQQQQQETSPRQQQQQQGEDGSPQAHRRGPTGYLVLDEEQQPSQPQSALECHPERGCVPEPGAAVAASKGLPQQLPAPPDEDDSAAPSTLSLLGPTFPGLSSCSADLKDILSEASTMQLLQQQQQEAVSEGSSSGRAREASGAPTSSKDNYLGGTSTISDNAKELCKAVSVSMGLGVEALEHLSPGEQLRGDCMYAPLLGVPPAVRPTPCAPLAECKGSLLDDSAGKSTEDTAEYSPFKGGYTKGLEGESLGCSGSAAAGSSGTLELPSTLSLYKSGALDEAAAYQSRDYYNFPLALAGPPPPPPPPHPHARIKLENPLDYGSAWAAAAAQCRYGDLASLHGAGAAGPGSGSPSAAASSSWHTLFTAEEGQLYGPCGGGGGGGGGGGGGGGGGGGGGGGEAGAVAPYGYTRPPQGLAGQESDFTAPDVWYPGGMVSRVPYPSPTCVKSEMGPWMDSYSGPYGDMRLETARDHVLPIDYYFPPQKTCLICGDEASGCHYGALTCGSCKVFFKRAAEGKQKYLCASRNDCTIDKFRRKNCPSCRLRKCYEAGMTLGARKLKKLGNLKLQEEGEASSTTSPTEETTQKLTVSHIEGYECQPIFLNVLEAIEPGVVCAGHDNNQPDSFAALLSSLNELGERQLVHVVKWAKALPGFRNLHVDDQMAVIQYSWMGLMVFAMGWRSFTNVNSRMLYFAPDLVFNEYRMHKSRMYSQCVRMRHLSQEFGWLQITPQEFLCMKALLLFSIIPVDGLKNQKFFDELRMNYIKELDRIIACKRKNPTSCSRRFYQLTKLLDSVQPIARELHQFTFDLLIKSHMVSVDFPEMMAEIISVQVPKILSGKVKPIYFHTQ
Test Method Notes: cell-based or functional assay

{"columns": ["Binder", "Observed Result"],
 "data": [
  ["M4D1 (peptide) MKLLSSIEQACDICRLKKLKCSKEKPKCAKCLKNNWECRYSPKTKRSPLTRAHLTEVESRLERLEQLFLLIFPREDLDMILKMDSLQDIKALLTGLFVQDNVNKDAVTDRLASVETDMPLTLRQHRISATSSSEESSNKGQRQLTVSEFRFPFHEMVREWESMGLERVRYAEP", 0]
]}

Return reported β-galactosidase activity (yeast two-hybrid), No Lig; argument: M2H3 (peptide) MKLLSSIEQACDICRLKKLKCSKEKPKCAKCLKNNWECRYSPKTKRSPLTRAHLTEVESRLERLEQLFLLIFPREDLDMILKMDSLQDIKALLTGLFVQDNVNKDAVTDRLASVETDMPLTLRQHRISATSSSEESSNKGQRQLTVSEFRQSFVSEILGGGWLPLDLQPS 2.53

The reported numbers originate from patent US20040043420A1.
